Hey, just so you know, these numbers are from the RNAGym collection of RNA variant scans (doi:10.1002/anie.201605470).

B1: Osa-1-4 twister ribozyme (parent)
chain: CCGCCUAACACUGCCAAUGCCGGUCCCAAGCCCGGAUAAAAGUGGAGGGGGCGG

Variants of: B1
Experiment: self-cleavage, relative activity (ratio to wild type); higher = more cleavage; co-transcriptional
Please note: Y applies when self-cleavage is 0.06 or greater, and N applies otherwise.

{"variant_name": "A41C G51U", "classification": "Y"}
{"variant_name": "A8U G49C", "classification": "N"}
{"variant_name": "A41G C14U", "classification": "Y"}
{"variant_name": "G51A U43G", "classification": "Y"}
{"variant_name": "A28G G54A", "classification": "Y"}
{"variant_name": "A36G G44U", "classification": "Y"}
{"variant_name": "C52G U37G", "classification": "Y"}
{"variant_name": "A38C G53A", "classification": "Y"}
{"variant_name": "C15A G13A", "classification": "N"}
{"variant_name": "G22U G34A", "classification": "Y"}
{"variant_name": "G42C U37C", "classification": "Y"}
{"variant_name": "C27G G54U", "classification": "Y"}
{"variant_name": "C31A G35U", "classification": "N"}
{"variant_name": "A8C C27G", "classification": "N"}
{"variant_name": "A29C U18A", "classification": "N"}
{"variant_name": "G45A U37C", "classification": "Y"}
{"variant_name": "C14U G51C", "classification": "N"}
